# assayed.target: T1, human Nectin-4 extracellular antigen hNectin-4-His (human, UniProt Q96NY8 32-349)
# T1 construct: C-terminal 8xHis tag included
# T1 sequence: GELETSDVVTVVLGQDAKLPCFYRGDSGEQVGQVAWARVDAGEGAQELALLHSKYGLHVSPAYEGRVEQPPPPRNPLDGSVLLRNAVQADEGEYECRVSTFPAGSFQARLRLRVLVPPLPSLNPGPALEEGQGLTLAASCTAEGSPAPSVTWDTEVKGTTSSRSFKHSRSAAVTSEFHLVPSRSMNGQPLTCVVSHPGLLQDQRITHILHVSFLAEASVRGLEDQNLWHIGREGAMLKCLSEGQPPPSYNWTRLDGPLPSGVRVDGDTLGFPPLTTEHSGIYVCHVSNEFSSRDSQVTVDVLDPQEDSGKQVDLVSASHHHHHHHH
# run.description: ELISA, phage scFv supernatant 1:50
Each entry below carries its recorded OD value.
Report the figure in OD without appending any unit label.

// solved cases for OD value follow
INSERT INTO measurements (binder, u, observed_result) VALUES
  ('1F3-2B9 scFv (scFv, V domains shown, phage clone supernatant) VH: EVQLVESGGGLVQPGGSLRLSCAASGFNFDSYAMSWVRQAPGKGLEWVSGIKPHTDDIYYADSVKGRFTISRDNSKNTLYLQMNSLRAEDTAVYYCARAELLAFDVYTASDYWGQGTLVTVSS VL: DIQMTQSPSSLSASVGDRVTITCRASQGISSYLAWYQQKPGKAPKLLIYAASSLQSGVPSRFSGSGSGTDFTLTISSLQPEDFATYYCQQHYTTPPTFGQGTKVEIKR', 'OD', 1.57),
  ('1F3-1D1 scFv (scFv, V domains shown, phage clone supernatant) VH: EVQLVESGGGLVQPGGSLRLSCAASGDIFTNYSMSWVRQAPGKGLEWVSGIYPSGDNNRYADSVKGRFTISRDNSKNTLYLQMNSLRAEDTAVYYCARAELLAFDVYTASDYWGQGTLVTVSS VL: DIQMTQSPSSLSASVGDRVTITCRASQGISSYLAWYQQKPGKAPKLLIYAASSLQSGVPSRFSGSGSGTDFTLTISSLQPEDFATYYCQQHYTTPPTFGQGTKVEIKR', 'OD', 1.29),
  ('1G8-2E7 scFv (scFv, V domains shown, phage clone supernatant) VH: EVQLVESGGGLVQPGGSLRLSCAASGYTFGNYAMSWVRQAPGKGLEWVSRISPSTWNIDYADSVKGRFTISRDNSKNTLYLQMNSLRAEDTAVYYCARQTEDRSYGYDLDYWGQGTLVTVSS VL: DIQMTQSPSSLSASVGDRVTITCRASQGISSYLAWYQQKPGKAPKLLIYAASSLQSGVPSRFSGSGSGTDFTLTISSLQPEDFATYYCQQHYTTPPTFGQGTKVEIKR', 'OD', 1.56),
  ('1G8-2H10 scFv (scFv, V domains shown, phage clone supernatant) VH: EVQLVESGGGLVQPGGSLRLSCAASGYNFTNSAMSWVRQAPGKGLEWVSSIYYHSGVPRYADSVKGRFTISRDNSKNTLYLQMNSLRAEDTAVYYCARQTEDRSYGYDLDYWGQGTLVTVSS VL: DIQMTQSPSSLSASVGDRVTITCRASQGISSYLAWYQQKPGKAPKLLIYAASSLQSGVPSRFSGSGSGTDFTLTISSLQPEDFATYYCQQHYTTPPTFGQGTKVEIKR', 'OD', 1.53);

Please find the next binder below.
Requested field: OD value. Item: 10F4-3 scFv (scFv, V domains shown, phage clone supernatant) VH: EVQLVESGGGLVQPGGSLRLSCAASGFSFGDFAMSWVRQAPGKGLEWVSVIDGHTAYNSYADSVKGRFTISRDNSKNTLYLQMNSLRAEDTAVYYCAREYSDVVDYVSVRTPLDYWGQGTLVTVSS VL: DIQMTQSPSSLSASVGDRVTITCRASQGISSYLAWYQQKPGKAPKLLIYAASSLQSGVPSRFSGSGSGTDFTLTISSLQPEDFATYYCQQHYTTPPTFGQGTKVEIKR 1.32
